Target: UDP-N-acetylglucosamine--peptide N-acetylglucosaminyltransferase 110 kDa subunit (Homo sapiens, UniProt O15294)
Experiment: Inhibition of OGT (unknown origin) using UDP-GlcNAc as substrate measured after 2 hrs by UDP-Glo luminescence assay
Peptide text beside a SMILES is read from it. * marks the point of attachment. X3 = O=c1ccn([C@@H]2O[C@H](COCCOCCN*)[C@@H](O)[C@H]2O)c(=O)[nH]1; X1 = O=c1ccn([C@@H]2O[C@H](CN*)[C@@H](O)[C@H]2O)c(=O)[nH]1
assay.metric: pIC50
Scale explanation: pIC50 corresponds to minus log10 of a concentration expressed in moles per litre.

CC(C)[C@H](NC(=O)[C@@H](N)CS)C(=O)N[C@H](C(=O)N1CCC[C@H]1C(=O)N[C@H](C(=O)N[C@@H](CCC(=O)NC[C@H]1O[C@@H](n2ccc(=O)[nH]c2=O)[C@H](O)[C@@H]1O)C(=O)N[C@H](C(=O)N[C@@H](C)C(N)=O)[C@@H](C)O)C(C)C)[C@@H](C)O (H-CVTPVE(X1)TA-NH2): 3.53

Could you now look at the following compound, please?
## Task Entry CC(C)[C@H](NC(=O)[C@@H](N)CS)C(=O)N[C@H](C(=O)N1CCC[C@H]1C(=O)N[C@H](C(=O)N[C@@H](CCC(=O)NCCOCCOC[C@H]1O[C@@H](n2ccc(=O)[nH]c2=O)[C@H](O)[C@@H]1O)C(=O)N[C@H](C(=O)N[C@@H](C)C(N)=O)[C@@H](C)O)C(C)C)[C@@H](C)O (H-CVTPVE(X3)TA-NH2) needs its pIC50 filled in; supply it.
## Result 3.31

====

Target: UDP-N-acetylglucosamine--peptide N-acetylglucosaminyltransferase 110 kDa subunit (Homo sapiens, UniProt O15294)
Sequence (O15294 whole entry): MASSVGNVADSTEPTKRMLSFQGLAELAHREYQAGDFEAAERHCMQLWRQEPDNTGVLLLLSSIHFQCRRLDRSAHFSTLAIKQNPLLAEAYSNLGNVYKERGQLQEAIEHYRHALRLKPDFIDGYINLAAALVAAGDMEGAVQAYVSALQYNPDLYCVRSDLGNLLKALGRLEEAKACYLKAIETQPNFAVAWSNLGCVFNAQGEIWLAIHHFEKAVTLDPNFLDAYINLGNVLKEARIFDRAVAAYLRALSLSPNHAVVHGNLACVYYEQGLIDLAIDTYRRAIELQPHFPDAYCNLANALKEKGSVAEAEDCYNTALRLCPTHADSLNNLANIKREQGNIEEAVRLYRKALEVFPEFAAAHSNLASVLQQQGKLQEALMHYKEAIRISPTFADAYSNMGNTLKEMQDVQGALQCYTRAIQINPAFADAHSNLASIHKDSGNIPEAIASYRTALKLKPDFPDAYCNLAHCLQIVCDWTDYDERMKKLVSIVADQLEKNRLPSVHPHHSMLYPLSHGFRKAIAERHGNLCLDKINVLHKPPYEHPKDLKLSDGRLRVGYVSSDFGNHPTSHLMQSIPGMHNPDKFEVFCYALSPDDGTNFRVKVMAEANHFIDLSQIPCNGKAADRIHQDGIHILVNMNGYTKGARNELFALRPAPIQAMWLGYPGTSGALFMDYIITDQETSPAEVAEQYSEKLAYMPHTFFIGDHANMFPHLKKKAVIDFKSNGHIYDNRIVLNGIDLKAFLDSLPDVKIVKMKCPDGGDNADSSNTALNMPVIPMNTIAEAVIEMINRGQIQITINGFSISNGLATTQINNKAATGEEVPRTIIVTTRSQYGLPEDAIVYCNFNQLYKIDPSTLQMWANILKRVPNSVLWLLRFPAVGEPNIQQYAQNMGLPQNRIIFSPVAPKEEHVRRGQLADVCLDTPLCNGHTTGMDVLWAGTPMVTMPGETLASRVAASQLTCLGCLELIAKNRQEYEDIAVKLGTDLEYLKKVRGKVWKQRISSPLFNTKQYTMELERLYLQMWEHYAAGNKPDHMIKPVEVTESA
Assay: Inhibition of OGT (unknown origin) using UDP-GlcNAc as substrate measured after 2 hrs by UDP-Glo luminescence assay
Side chains are listed from the residue outwards. Peptide text beside a SMILES is read from it. * marks the point of attachment. X4 = O=C(c1cc(=O)[nH]c2ccccc12)*; 4Amb = NCc1ccc(C(=O)O)cc1
assay.metric: pIC50
Scale explanation: pIC50 corresponds to minus log10 of a concentration expressed in moles per litre.

## Task Entry CC(C)[C@H](NC(=O)[C@@H](N)CS)C(=O)N[C@H](C(=O)N1CCC[C@H]1C(=O)N[C@H](C(=O)N[C@@H](CCCCNC(=O)c1ccc(CNC(=O)c2cc(=O)[nH]c3ccccc23)cc1)C(=O)N[C@H](C(=O)N[C@@H](C)C(N)=O)[C@@H](C)O)C(C)C)[C@@H](C)O (H-CVTPVK([4Amb-X4])TA-NH2) needs its pIC50 filled in; supply it.
## Result 3.93

====

Biological target: UDP-N-acetylglucosamine--peptide N-acetylglucosaminyltransferase 110 kDa subunit (Homo sapiens)
Assay: Inhibition of OGT (unknown origin) using UDP-GlcNAc as substrate measured after 2 hrs by UDP-Glo luminescence assay
assay.metric: IC50 (µM)
Write the number in µM without appending the unit.

H-CVTPVATA-NH2: 385

Could you now look at the following substance, please?
## Task Entry `H-RVPSAQS-NH2` needs its IC50 filled in; supply it.
## Result 193

====

Molecular target: UDP-N-acetylglucosamine--peptide N-acetylglucosaminyltransferase 110 kDa subunit (Homo sapiens) (UniProt O15294)
Experiment: Inhibition of OGT (unknown origin) at 1 mM using UDP-GlcNAc as substrate measured after 2 hrs by UDP-Glo luminescence assay relative to control
This listing pairs molecules with measured inhibition.
Write the number in % without appending the unit.

The cases that follow already have their inhibition on record.
O=C(O)CNC(=O)c1cc(=O)[nH]c2ccccc12: 90
CCOC(=O)C1CCC(CNC(=O)c2cc(=O)[nH]c3ccccc23)CC1 (configuration not stated): 90
O=C(NCc1ccccc1Cl)c1cc(O)nc2ccccc12: 90
CC(C)(C)OC(=O)CCNC(=O)c1cc(=O)[nH]c2ccccc12: 90
CCOC(=O)c1ccc(CNC(=O)c2cc(=O)[nH]c3ccccc23)cc1: 90

## Task Entry `O=C(O)CCCNC(=O)c1cc(=O)[nH]c2ccccc12` needs its inhibition filled in; supply it.
## Result 90

## Task Entry `CCOC(=O)CCCNC(=O)c1cc(=O)[nH]c2ccccc12` needs its inhibition filled in; supply it.
## Result 90

## Task Entry `O=C(O)CCNC(=O)c1cc(=O)[nH]c2ccccc12` needs its inhibition filled in; supply it.
## Result 90

## Task Entry `COc1ccc(CNC(=O)c2cc(=O)[nH]c3ccccc23)cc1OC` needs its inhibition filled in; supply it.
## Result 90

## Task Entry `O=C(NCc1ccccc1)c1cc(O)nc2ccccc12` needs its inhibition filled in; supply it.
## Result 90
